Origin of the recorded values: the nanobody polyreactivity screen of Harvey et al. (2022)

- procedure.summary: yeast display, Sf9 membrane polyspecificity reagent, FACS + sequencing; frameworks hold sequencing errors

| biopolymer.sequence | polyreactivity (PSR sort gate) |
| --- | --- |
| QVQLVESGVGLVQAGGSLRLSCAASGRIFCYYAMGWYRQAPGKERELVATINGGGSTNYADSVKGRFTISRDNAKNTVYLQMNSLKPEDTAVYYCAAAQWAYWLLYKYWGQVTQVTVSS | low polyreactivity |
| QVQHVESGGRLVQAGGSLRLSCAASGFIFPNYAMGWYRQAPGKERELVAVISRSGGSTYYADSVKGRFTISRDNAKNTVYLQMNSLKPEDTAVYYCNAVARGYGYDYWGQGTQVTVSS | high polyreactivity |
| QVQLVESGGGLFQAGGSLRLSCAASGSTFYNYAMGWYRQAPGIERELVAAISSGGSTNYADSVKGRFTISRDNAKYTVFLQMNSLKPEDSAVYYCARRHRVYASRNGHDYWGQGTQVTVSS | low polyreactivity |
| QVQLVESGGGLVQAGGSLRLSGAASGRIFGTYDMGWYRQAPGKERELVAAINRSAGSTYYADSVKGRITISRDNAKNTVYLQMNSLKPEDTAVYYCAKQPLLFQYLEYDYWGQGTQVTVSS | low polyreactivity |
| QVQLVETGGGLVQAGGSLRLSCAASGRTFGPYVMGWYRQAPGKERELVAGITSGGSTNYADSVKGRFTISRDNAKNTVYLQMNSLKPEDTAVYYCNADYVIYFGLYEYWGQGTQVTVSS | low polyreactivity |
| QVQLVESGGGLVQAGGSLRLSCAASGSTFDFNAMGWYRQAPWKEMELVADITRDGSTNYADSVKGRFTISRDNAKNTVYLQMNSLNPEDTAVYYCNAANRPGISGITTQGYYWGQGTQVTVSA | low polyreactivity |
| QVQLVESGGGLVQAGGSLRLSCAASGFIFSVYAMGWYRQAPGKERELVAAITESGGSTYYADSVKGRFTISRDNAKNSVYLQMNSLKPEDTAVYYCAAAIRPYEYEYWGQGTQVTVSS | low polyreactivity |
| QVQLVESGGGLVQAGGSLRLSCAASGFTFNDYAMGWYRQAPGKEWELVAAIDWSGGRTYYADSVKGRFTISRDNAKNTVYLQMNSLKAEDTAVYYFAAVLYSRLYWYRLDYWGQGTQVTVSS | low polyreactivity |
| QVQLVESGGVLLQGGGSLRLTWAASGGIFTDYTIRSYRQAPGKERELVADITWTGGSTYYPDSVKGRFTISRDNAKNTVYLQMNSLKPEDTAVYYCAADDYWVNLDYWGQGTQVTVSS | low polyreactivity |
| QVQRVESAGGLVQAGGSLRLSCAASGFIFSWYAMGWYRQAPGKERELVAAIRWSSGRTYYADSVKGRFTISRDNAKNTVYVQMNSLKPEDTAVYYCNARSDIHNSYDYWGQGTQVTVSS | high polyreactivity |
| QVQLVESGGGLVQAGASLRLSCAASGRTFAYYAMGWYRQAPGKERELVATITSSVGRTYYADSVKGRFTISRDNAKNTVYLQINSLKPEDTAVYYCNASDWGRTRGGGYPWLYRYDYWGQGTQVTVSS | low polyreactivity |

====

- procedure.summary: yeast display, Sf9 membrane polyspecificity reagent, FACS + sequencing; frameworks hold sequencing errors

| biopolymer.sequence | polyreactivity (PSR sort gate) |
| --- | --- |
| QVQLVESGGGLVQAGGSLRLSCAASGRTFFDYTMGWYRQAPGNERELDAAITGGDGSTYYADSVKGRFTISRDNAKNTVYLEMTSLKPEDTAVYYCAAEYTRTYWYAAMDYWGQGTQVTVSS | low polyreactivity |
| QVQLVESGGGLVQAGGILRLSSAASGRTILSYAMGWYRQAPGKERELVAAITRSGGGTFYADSVKGRFTLSRDNAKNTVYVQMNSLKPEDTAVYYCAARYYNYASPTRFKYNYWGQGTQVTVSS | high polyreactivity |
| QVQLVESGGGIVQAGGSLRLSCAASGRTFEQNVMRWYRQAPGKERELVAAITTGGSTNYADSVKGRFTISRDNAKNTVYLQMNSLKPEDTAVYYCAADRYLGGDYDYWGQGTQVTVSS | low polyreactivity |
| QVQLVESGGGLVQAGGILRLSCASSGNIFDRYAMGWYRQAPGKERELVAGITWSGGSTYYADSVKGRFTISRDNEKNTVYLQMNSLKPEDTAVYYCGQANYYWGQGTQVTVSA | low polyreactivity |
| QVQLVESGGGLVQAGGSLRLSCAASGRIIASYAMGWNRHAPGKETELVAAISLSGGSTYYADSVKGRFTISRDNAKNTVYLQMNSLKPEDCAVYYCAAKNYRRYRDYYWGQGTQVSVSS | high polyreactivity |

====

- procedure.summary: yeast display, Sf9 membrane polyspecificity reagent, FACS + sequencing; frameworks hold sequencing errors
measure.name: polyreactivity (PSR sort gate)

| biopolymer.sequence | measure.name | result.value |
| --- | --- | --- |
| QVQLVESGGGLVQAGGSLRLSCAASGFTFQRYTMGWYRQAPGKERELVAAISWSGGSTYYADSVKGRFTISRDNAKNSVYLQMNSLKPEDTAVYYCAAYRVIPYLSDYWGEGTQVTVSS | polyreactivity (PSR sort gate) | high polyreactivity |
| QVLLVESGGGLVQAGGSLRLSCSASGITFEYYAMGWYRQAPGKERELVADIDTGGSTNYADSVKGRFTISRDNAKNTVYLQMNSLKPEDTAVYYCAADWSWWDAEDYHFEYDYWGQGTQVTVSS | polyreactivity (PSR sort gate) | low polyreactivity |
| QVQRVESGGGLVQAGGRLRISCAASGRTFRGNDMGWYRQAPGKERELVPTITRNGGSTRYADSVKGRFTISRDNAKNTVYLQMNSLQPEDTAVYYCAAREKYTPALEVEYWGQGTQVTVSS | polyreactivity (PSR sort gate) | high polyreactivity |
| QVLLVESGGGLFQAGGRLRVSCAASGSTLLRYAMGWYRQAPGKERELVAAISGTGSRTYYADSVKGRFTISRDNAKNTVYLKMISLNPEDTAVYYCYACPYRLTEIDYWGQGTPVTVSS | polyreactivity (PSR sort gate) | high polyreactivity |
| QFQLVESGGGLVQAGGSLRLSCAASGSTFTPYDMGWYRQAPGKERELVAVITGSDGTYYADSVKGRFTISRDNAKNTVYLQMNSLKPEDTAVYYCATDWTFGRWSTLGVEMDYWGQGTQVTVSS | polyreactivity (PSR sort gate) | low polyreactivity |
| QVQLVESGGGLVQAGGSLRLTCAASGSTFIRNTMGWYRQAPGKERELVAAISRSGVRTYYADSVKGRFTISRDNAKNTVYLQMNSLKPEDTAVYYCNVLRYRLWGQGTQVTVSS | polyreactivity (PSR sort gate) | high polyreactivity |
| QFQLVESGGGLVHAGGSLRLSCAASGITYWAYSMGWYRQARGKERELVAAIRFRGRTYYADSVKGRFTISRDNAKNSVYLQMNSLKAEDTAVYYFDADLSYWDDFEYWGQGNQVTVSS | polyreactivity (PSR sort gate) | low polyreactivity |
| QVQLVESVGGLVQAGGSLRLSCAASGRIFPYYAMGWYIQAPGKERELVATITWRGGITYYADSVKGRFTISRDNAKNTVYLQMNSLKPEDTSVYYCAVRKVYRSSFDYWGQGTQVTVSS | polyreactivity (PSR sort gate) | high polyreactivity |
| QVHLVESVGGLVQAGGSLRLSCAASGRTFPYNAMGWYIQAPGKERELVAVISKGGGRTYYADSVKGRFTISLDNAKNTVYLQMNSLKPEDTAVYYCDARYDGSSDYRLNYWGQGTQVTVSS | polyreactivity (PSR sort gate) | high polyreactivity |
| QVQLVESGGGLVQAGGSLRLRCAASGRTFSSYDKAWYRPAPGKERELVAAITKSGGSTYYADSVKGRFTLSRDKAKNTVYLQMNSLKPDDTAVYYCGYQYYYWGQGTQVTVSS | polyreactivity (PSR sort gate) | high polyreactivity |
| QVQLGESGGGLVQAGGSLRLSCAASGFIFEHYARGWYRQAPGTDTEFVARISWGGGSTYYADSVKGRFTISRDNAKNTVYLQMNSLKPEDTAVYYCHALEGVYFGYYPSDYWGQGTQVTVAS | polyreactivity (PSR sort gate) | low polyreactivity |

====

- procedure.summary: yeast display, Sf9 membrane polyspecificity reagent, FACS + sequencing; frameworks hold sequencing errors
measure.name: polyreactivity (PSR sort gate)

| biopolymer.sequence | measure.name | result.value |
| --- | --- | --- |
| QVQIVESGGVLVQAGGSLRLSCAASGITLRVYVMGWYRQAPGKERELVAAITSRGDRTYYADSVKGRSTISRDNAKNTVYLQMNSLKPEDTAVYDCAARYYSYPPGLSQTRLTYYYWGQGTQVTVSS | polyreactivity (PSR sort gate) | high polyreactivity |
| QVQLVESGGGLVQAGGSLRLSSAASGRIFYQYAMGWYRQAPGKERELVASISRSGTRTYYADSVKGRFTISRDNAKNTVYLQMISLKPEDTAVYYCAARGRASVERRGGYYYWGQGTQVTVSS | polyreactivity (PSR sort gate) | high polyreactivity |
